System: gum arabic
Experiment: VHH binding to gum arabic in ELISA
Set-up: species or system acacia tree
Conditions: Table 2; gum arabic coating; VHH 3 μg/ml
parameter: absorbance at 405 nm
Please give the numeric answer without any surrounding text.

molecule="VHH 3E6: VHH binding gum arabic, potato lectin and leaf surface; SEQ ID NO:7 by order of the list (protein, listed as Lama glama, 3E6) VHH: QVQLQESGGGLVQPGGTLSLSCAASGFNVRWYGMGWFRQAPGKEREGVACISALQETTAYADSVKGRFTLSRDNPKNTLSLQMNNLQPEDTGVYYCATTDCDDSSRMTYTSYLGQGTQVTVSS" parameter="absorbance at 405 nm" experimental_result=0.882

The reported value for VHH 5C4: VHH sequence; SEQ ID NO:18 by order of the list (protein, listed as Lama glama, 5C4) VHH: QVQLQESGGGLVQPGGSLRLSCAASGFSLRYFGIGWFRQVAGKEREPVSCSNVRDGNTYYADSVKGRFTISRDNVRNTLYLQMNSLKPEDTAVYSCATTDCEATTWGTYRGYFGQGTQVTVSS in terms of absorbance at 405 nm is 0.873

Notebook: VHH 5G5: VHH sequence; SEQ ID NO:24 by order of the list (protein, listed as Lama glama, 5G5) VHH: QVQLQESGGGLVQPGGSLRLSCAASGFSLRYFGIGWFRQAAGKEREGISCSNVRDGNTYYADSVKGRFTISRDNVRNMLYLQMNNLKPDDTAVYSCATTDCEATTWGTYRGYFGQGTQVTVSS , absorbance at 405 nm read as 0.751

The reported value for VHH 7D2: VHH sequence; SEQ ID NO:28 by order of the list (protein, listed as Lama glama, 7D2) VHH: QVQLQESGGGLVQPGRSLKVACAAAGFSLRYYGIGWFRQAPGKEREAVSCTSANDGSTYYRDSVRGRFTISRDDGKNTVYLQMNRLKPEDTAVYYCATTDCDATSWGTWINYYGQGTQVTVSS in terms of absorbance at 405 nm is 0.274

Lab book: absorbance at 405 nm of VHH 5D4: VHH sequence; SEQ ID NO:20 by order of the list (protein, listed as Lama glama, 5D4) VHH: QVQLQESGGGLVQPGGSLRLSCAASGFDMRRFGIGWFRQVAGKEREGVSCSNVHDGTTYYTNDVKGRFTIVRDNTKNMLYLQMNKLRPEDTAVYSCATTDCEATAWGTYRGYFGQGTQVTVSS noted as 0.530
